Each entry below carries its reported pIC50.
study.system: recombinant CYP-17 (Homo sapiens, UniProt P05093)
Sequence (P05093 whole entry, species assumed): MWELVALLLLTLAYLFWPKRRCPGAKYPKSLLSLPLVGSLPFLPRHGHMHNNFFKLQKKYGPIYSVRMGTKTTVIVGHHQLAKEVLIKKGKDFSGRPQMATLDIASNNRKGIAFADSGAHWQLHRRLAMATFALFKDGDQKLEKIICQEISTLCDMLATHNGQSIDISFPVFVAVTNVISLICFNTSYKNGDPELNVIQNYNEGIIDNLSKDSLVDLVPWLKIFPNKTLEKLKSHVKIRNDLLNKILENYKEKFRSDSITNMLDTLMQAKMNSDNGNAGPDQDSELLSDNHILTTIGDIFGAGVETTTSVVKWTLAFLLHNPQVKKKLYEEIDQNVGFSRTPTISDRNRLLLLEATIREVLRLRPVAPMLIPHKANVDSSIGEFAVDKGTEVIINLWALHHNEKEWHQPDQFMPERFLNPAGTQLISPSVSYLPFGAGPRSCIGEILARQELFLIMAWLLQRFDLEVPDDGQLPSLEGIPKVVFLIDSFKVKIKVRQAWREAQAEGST
test.summary: Cyp17 assay: 3H-acetic acid release from [21-3H] 17α-hydroxyl-Pregnenolone in AD293 cells
study.conditions: AD293 cells stably over-expressing recombinant CYP-17; eight concentrations 10 μM to 4.5 nM
Scale: pIC50 equals -log10([C]), with [C] in mol/L.

Recorded pIC50, per entry:
molecule="COc1cc(F)ccc1-c1ccc(C(c2ccncc2)N2CCCCC2)cc1 (centres unmarked) [Entry 18]" measure=pIC50 meas_value=6.11
molecule="COc1ccc(-c2ccc(C(F)c3ccncc3)cc2)cc1OC (centres unmarked) [Entry 7]" measure=pIC50 meas_value=7.85
molecule="COc1cc(F)ccc1-c1ccc(C(c2ccncc2)N2CCCC2)cc1 (centres unmarked) [Entry 19]" measure=pIC50 meas_value=6.60

Next:
Qu. Lab note: need pIC50 for COc1ccc(-c2ccc(C(OC)c3ccncc3)cc2)cc1OC (centres unmarked) [Entry 15] on recombinant CYP-17 (Homo sapiens, UniProt P05093), anyone have it?
Ans. 7.96

Values compiled from patent US20150210641A1.
